Ref: ChEMBL document CHEMBL1255182

# protocol_text: Cytotoxicity against human OC2 cells after 24 hrs by MTT assay
# Type: functional, cell-based
# recorded_conditions: OC2, 24 h

compound	IC50, µM
C=C(CC[C@@H](C)[C@H]1CC[C@H]2C3=C(C(=O)C[C@]12C)[C@@]1(C)CCC(=O)[C@@H](C)[C@@H]1CC3)C(C)C(=O)OC (stereo partly specified) [METHYLANTCINATE A]	37.4
